Tested on: Plasmodium falciparum
test: Antimalarial activity against Plasmodium falciparum FCR-3 infected in human erythrocytes after 72 hrs by lactate dehydrogenase assay
Type: functional, cell-based
settings: FCR-3/Gambia
measured parameter: IC50 (ng/mL)

INSERT INTO assay_data (compound_structure_string, measured_parameter, numeric_result) VALUES
  ('C[C@@H]1C[C@H](C)C[C@H](C)[C@@H](O)CC(=O)O[C@H]([C@@H]2CCC[C@H]2C(=O)OCc2ccccc2)C/C=C/C=C(/C#N)[C@H](O)[C@@H](C)C1', 'IC50', 20.5),
  ('C[C@@H]1C[C@H](C)C[C@H](C)[C@@H](O)CC(=O)O[C@H]([C@@H]2CCC[C@H]2C(=O)NCC(=O)O)C/C=C/C=C(/C#N)[C@H](O)[C@@H](C)C1', 'IC50', 31),
  ('CCCOC(=O)[C@@H]1CCC[C@H]1[C@@H]1C/C=C/C=C(/C#N)[C@H](O)[C@@H](C)C[C@H](C)C[C@H](C)C[C@H](C)[C@@H](O)CC(=O)O1', 'IC50', 78.8),
  ('C[C@@H]1C[C@H](C)C[C@H](C)[C@@H](O)CC(=O)O[C@H]([C@@H]2CCC[C@H]2C(=O)OCCN(C)C)C/C=C/C=C(/C#N)[C@H](O)[C@@H](C)C1', 'IC50', 0.24),
  ('C[C@@H]1C[C@H](C)C[C@H](C)[C@@H](O)CC(=O)O[C@H]([C@@H]2CCC[C@H]2C(=O)OCc2cn(-c3cnc4ccccc4c3)nn2)C/C=C/C=C(/C#N)[C@H](O)[C@@H](C)C1', 'IC50', 0.079),
  ('CCSC(=O)[C@@H]1CCC[C@H]1[C@@H]1C/C=C/C=C(/C#N)[C@H](O)[C@@H](C)C[C@H](C)C[C@H](C)C[C@H](C)[C@@H](O)CC(=O)O1', 'IC50', 10),
  ('C[C@@H]1C[C@H](C)C[C@H](C)[C@@H](O)CC(=O)O[C@H]([C@@H]2CCC[C@H]2C(=O)N[C@@H](CC(N)=O)C(=O)O)C/C=C/C=C(/C#N)[C@H](O)[C@@H](C)C1', 'IC50', 810),
  ('C[C@@H]1C[C@H](C)C[C@H](C)[C@@H](O)CC(=O)O[C@H]([C@@H]2CCC[C@H]2C(=O)N[C@@H](Cc2ccc(O)cc2)C(=O)O)C/C=C/C=C(/C#N)[C@H](O)[C@@H](C)C1', 'IC50', 170);

A = C[C@@H]1C[C@H](C)C[C@H](C)[C@@H](O)CC(=O)O[C@H]([C@@H]2CCC[C@H]2C(=O)OCCN2CCOCC2)C/C=C/C=C(/C#N)[C@H](O)[C@@H](C)C1
B = C[C@@H]1C[C@H](C)C[C@H](C)[C@@H](O)CC(=O)O[C@H]([C@@H]2CCC[C@H]2C(=O)Sc2ccccc2)C/C=C/C=C(/C#N)[C@H](O)[C@@H](C)C1
Task: Determine, for A and B , which has the greater value of IC50. Identify your selection by its label.
Output: B
(B: 160 ng/mL, A: 0.43 ng/mL)

P = C[C@@H]1C[C@H](C)C[C@H](C)[C@@H](O)CC(=O)O[C@H]([C@@H]2CCC[C@H]2C(=O)OCc2cn(-c3cccnc3)nn2)C/C=C/C=C(/C#N)[C@H](O)[C@@H](C)C1
Q = C[C@@H]1C[C@H](C)C[C@H](C)[C@@H](O)CC(=O)O[C@H]([C@@H]2CCC[C@H]2C(=O)N[C@@H](C)C(=O)O)C/C=C/C=C(/C#N)[C@H](O)[C@@H](C)C1
R = CCCSC(=O)[C@@H]1CCC[C@H]1[C@@H]1C/C=C/C=C(/C#N)[C@H](O)[C@@H](C)C[C@H](C)C[C@H](C)C[C@H](C)[C@@H](O)CC(=O)O1
S = CC(=O)O[C@H]1CC(=O)O[C@H]([C@@H]2CCC[C@H]2C(=O)O)C/C=C/C=C(/C#N)[C@H](OC(C)=O)[C@@H](C)C[C@H](C)C[C@H](C)C[C@@H]1C
Task: Provide the items ranked by increasing IC50. Please list each label once, in the requested order.
Output: P, Q, S, R
(P: 4.8 ng/mL, Q: 13 ng/mL, S: 120 ng/mL, R: 280 ng/mL)
